Test system: TDF;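 also: TDF is a line of transformed human dermal fibroblasts of mesenchymal origin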
Protocol description: H1.0 immunofluorescence intensity relative to DMSO (% of DMSO); higher = stronger H1.0 induction, active = 120 or more
Experimental conditions: concentration: 10 µM; 24 h
Outcome measure: H1.0 immunofluorescence intensity
Enter the number alone.

{"columns": ["Compound", "Observed result"],
 "data": [
  ["CCOC(=O)c1csc(Nc2ccc(Cl)cc2)n1 [ethyl 2-(4-chloroanilino)-1,3-thiazole-4-carboxylate]", 99.7],
  ["O=C1CCC(N2C(=O)c3ccccc3C2=O)C(=O)N1 (centres undefined) [Thalidomide]", 97.1],
  ["COc1ccc(-c2ccc3cc(C(=O)O)ccc3c2)cc1C12CC3CC(CC(C3)C1)C2", 99.5]
]}

// switching to the query compound
Lookup result for Cc1ccc(CN2C(=O)S/C(=C\c3ccc(Cl)cc3)C2=O)cc1 ; measured H1.0 immunofluorescence intensity: 98.2

====

Tested on: HCC1569;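 also: TDF denotes transformed human dermal fibroblasts of mesenchymal origin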
Protocol description: cell number relative to DMSO (% of DMSO); higher = more cells (less growth inhibition / toxicity)
Experimental conditions: concentration: 10 µM; 24 h
Outcome measure: cell number
Enter the number alone.

{"columns": ["Molecule", "Outcome measure", "Observed result"],
 "data": [
  ["CCCCCCCCCCOCCC(=O)O", "cell number", 102],
  ["Nc1ncnc2c1cnn2-c1ccccc1", "cell number", 103],
  ["Cl.O=C(O)C1=CCNCC1 [Isoguvacine hydrochloride]", "cell number", 106],
  ["Cc1cnc(-c2cnc(NCCNc3ccc(C#N)cn3)nc2-c2ccc(Cl)cc2Cl)[nH]1", "cell number", 70.4]
]}

// switching to the query molecule
CN(Cc1ccc(C(C)(C)C)cc1)Cc1cccc2ccccc12 on HCC1569 gives cell number = 101

====

H1.0 immunofluorescence intensity overview
Test system: TDF;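 also: TDF is a line of transformed human dermal fibroblasts of mesenchymal origin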
Protocol description: H1.0 immunofluorescence intensity relative to DMSO (% of DMSO); higher = stronger H1.0 induction, active = 120 or more
Experimental conditions: concentration: 10 µM; 24 h
Enter the number alone.

{"columns": ["Compound", "Experimental target", "H1.0 immunofluorescence intensity"],
 "data": [
  ["O=C(O)CCCC=CCC=CC=CC(O)CC=CCCCCCO (stereo not given)", "TDF", 98.3]
]}

Lookup result for CN(C)CC(C)(C)CNc1nn2c(-c3ccccc3)nnc2cc1C1CCC1 ; measured H1.0 immunofluorescence intensity: 99.9

Lookup result for COc1cc(C(=O)OCCCCN=C(N)N)cc(OC)c1O ; measured H1.0 immunofluorescence intensity: 102

Lookup result for CCOc1ccccc1OCCNC(C)Cc1ccc(OC)c(S(N)(=O)=O)c1 (stereo not given) [Tamsulosin] ; measured H1.0 immunofluorescence intensity: 97.8

Lookup result for COC(=O)C1=C(C)NC(C)=C(C(=O)OCCN(C)Cc2ccccc2)C1c1cccc([N+](=O)[O-])c1.Cl (stereo not given) [Nicardipine.HCl] ; measured H1.0 immunofluorescence intensity: 98.7

====

Tested on: HCC1569;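 also: TDF denotes transformed human dermal fibroblasts of mesenchymal origin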
Protocol description: cell number relative to DMSO (% of DMSO); higher = more cells (less growth inhibition / toxicity)
Experimental conditions: concentration: 10 µM; 24 h
# label = Satisfied if cell number >= 100 else Not satisfied

Here's what some known entries look like.
{"columns": ["Compound", "Class label"],
 "data": [
  ["CCN(CC)CCCCNc1ncc2cc(-c3c(Cl)cccc3Cl)c(NC(=O)NC(C)(C)C)nc2n1", "Not satisfied"],
  ["Cc1cn(C2CC(N=[N+]=[N-])C(CO)O2)c(=O)[nH]c1=O (configuration not stated) [3'-Azido-3'-deoxythymidine]", "Satisfied"],
  ["C[N+]1(C)CCCC1C(=O)[O-].Cl (configuration not stated)", "Not satisfied"],
  ["COc1ccc(-c2ccc3c(N4CCOCC4)nc(N4CC(C)OC(C)C4)nc3n2)cc1CO (configuration not stated)", "Not satisfied"]
]}

// switching to the query compound
Has O=c1cc(-c2cccc3c2Sc2ccccc2S3)oc(N2CCOCC2)c1 [ATM Kinase Inhibitor] a recorded cell number greater than or equal to 100?
Not satisfied
